species on record: Homo sapiens; assay: Selectivity index, ratio of Ki for recombinant human furin expressed in drosophila S2 cells to Ki for recombinant human PACE4 expressed in drosophila S2 cells; assay type: cell-based
Peptide text beside a SMILES is read from it. * marks the point of attachment. NH(4-amidinobenzyl) = N=C(N)c1ccc(CN*)cc1
Reported Ratio Ki by item:
I only need the number, thanks.

Asked: So what's the measured Ratio Ki for this one? CC(=O)N[C@@H](CC(C)C)C(=O)N[C@@H](CC(N)=O)C(=O)N[C@@H](CC(C)C)C(=O)N[C@@H](CC(C)C)C(=O)N[C@@H](CCCNC(=N)N)C(=O)N[C@H](C(=O)N[C@@H](CCCCN)C(=O)NCc1ccc(C(=N)N)cc1)C(C)C (Ac-LNLLRVK-{NH(4-amidinobenzyl)})
Given back: 0.3

# input for lookup
Asked: So what's the measured Ratio Ki for this one? CC(=O)N[C@@H](CC(C)C)C(=O)N[C@@H](CC(C)C)C(=O)N[C@@H](Cc1ccccc1)C(=O)N[C@@H](CC(C)C)C(=O)N[C@@H](CCCNC(=N)N)C(=O)N[C@H](C(=O)N[C@@H](CCCCN)C(=O)NCc1ccc(C(=N)N)cc1)C(C)C (Ac-LLFLRVK-{NH(4-amidinobenzyl)})
Given back: 0.3
